Documented TDI CYP3A4 shift ratio across a set of molecules
# ASSAY_SYSTEM: CYP3A4 (Homo sapiens (Human), UniProt P08684)
# Sequence (P08684 whole entry): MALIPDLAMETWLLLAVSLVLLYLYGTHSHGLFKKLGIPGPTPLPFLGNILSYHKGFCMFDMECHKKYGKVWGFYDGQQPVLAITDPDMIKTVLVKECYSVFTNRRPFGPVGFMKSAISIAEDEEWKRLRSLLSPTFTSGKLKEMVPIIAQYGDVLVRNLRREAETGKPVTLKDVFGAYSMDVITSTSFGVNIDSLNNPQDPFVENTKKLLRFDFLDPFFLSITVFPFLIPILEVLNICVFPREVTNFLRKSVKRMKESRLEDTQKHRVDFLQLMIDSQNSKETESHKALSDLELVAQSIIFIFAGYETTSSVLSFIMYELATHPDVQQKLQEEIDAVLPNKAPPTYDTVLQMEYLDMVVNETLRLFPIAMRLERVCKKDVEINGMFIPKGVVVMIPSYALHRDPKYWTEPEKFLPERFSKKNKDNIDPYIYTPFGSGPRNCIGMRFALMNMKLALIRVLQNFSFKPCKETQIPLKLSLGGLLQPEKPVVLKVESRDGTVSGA
# TEST_METHOD_NOTES: time-dependent inhibition (TDI) of CYP3A4
# Type: in vitro ADME
Respond with the number and no other words.

Entry Cc1nc(N2CC(c3nc4ccccc4n3C)C2)cc(-n2nc(C)nc2C(O)C(F)(F)F)n1 (single isomer, unassigned) [Example 3b] has what TDI CYP3A4 shift ratio?
1

Here is the next molecule: Cc1nc([C@@H]2C[C@H]2c2nc3ccccc3n2C)cc(-n2nc(C)nc2C(C)(C)O)n1 [Compound A, reference compound]
1

Here is the next molecule: Cc1nc(N2CC(c3nc4ccccc4n3C)C2)cc(-n2nc(C)nc2[C@H](C)O)n1 [Example 1]
1
